# experimentalSystem: Ephrin type-B receptor 2 (Homo sapiens)
# Sequence (whole entry): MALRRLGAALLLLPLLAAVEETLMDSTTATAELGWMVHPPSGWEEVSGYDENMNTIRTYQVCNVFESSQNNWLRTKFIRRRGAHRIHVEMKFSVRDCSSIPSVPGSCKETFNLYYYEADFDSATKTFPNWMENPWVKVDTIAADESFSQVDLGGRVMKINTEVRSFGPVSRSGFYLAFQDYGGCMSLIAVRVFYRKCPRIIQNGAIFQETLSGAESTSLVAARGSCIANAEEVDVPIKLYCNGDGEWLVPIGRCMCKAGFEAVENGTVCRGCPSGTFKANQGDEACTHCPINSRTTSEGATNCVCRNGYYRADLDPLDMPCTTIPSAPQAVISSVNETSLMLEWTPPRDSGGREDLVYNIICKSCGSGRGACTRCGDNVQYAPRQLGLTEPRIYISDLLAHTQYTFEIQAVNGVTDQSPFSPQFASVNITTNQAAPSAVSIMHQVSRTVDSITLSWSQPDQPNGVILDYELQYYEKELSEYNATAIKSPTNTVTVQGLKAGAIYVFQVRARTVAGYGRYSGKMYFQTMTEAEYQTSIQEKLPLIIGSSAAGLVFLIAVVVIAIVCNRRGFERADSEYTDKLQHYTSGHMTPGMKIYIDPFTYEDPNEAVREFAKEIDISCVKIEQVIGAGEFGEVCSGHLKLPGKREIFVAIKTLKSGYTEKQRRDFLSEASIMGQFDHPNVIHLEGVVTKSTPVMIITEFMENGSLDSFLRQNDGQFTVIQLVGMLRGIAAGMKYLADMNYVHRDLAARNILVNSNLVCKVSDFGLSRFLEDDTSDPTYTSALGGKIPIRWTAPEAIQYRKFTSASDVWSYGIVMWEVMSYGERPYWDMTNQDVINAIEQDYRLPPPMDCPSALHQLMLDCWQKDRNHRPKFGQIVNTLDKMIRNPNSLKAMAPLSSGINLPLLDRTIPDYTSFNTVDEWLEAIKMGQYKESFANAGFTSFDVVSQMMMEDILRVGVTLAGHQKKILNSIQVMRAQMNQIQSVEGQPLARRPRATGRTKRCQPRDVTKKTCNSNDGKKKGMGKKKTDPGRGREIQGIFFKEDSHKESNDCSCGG
# runConditions: at 1 µM
# Description: GSK_PKIS: EPHB2 mean inhibition at 1 uM [Nanosyn]
Known inhibition of a selection of compounds
Kindly provide the numeric value in % only, without the unit symbol.

Worked set:
{"smilesRepr": "Cc1ccc2c(-c3ccnc(Nc4ccccc4)n3)c(-c3ccc(F)cc3)nn2n1", "reportedResult": 70.6}
{"smilesRepr": "CS(=O)(=O)CCNCc1ccc(-c2ccc3ncnc(Nc4ccc(OCc5ccccc5)c(C(F)(F)F)c4)c3c2)o1", "reportedResult": 5.29}
{"smilesRepr": "CC(C)COC(=O)c1ccc2c(c1)/C(=C/Nc1ccc(S(N)(=O)=O)cc1)C(=O)N2", "reportedResult": -4.93}

Next compound, inhibition to be filled in.
Need inhibition, item Fc1ccc(-c2nn3ccccc3c2-c2ccncc2)cc1
17.7
